# credit: patent US4925943A

Form: system (α2 adrenergic receptors of rat cerebral cortex (Rattus norvegicus, UniProt P22909)), quantity (Ki), values below.

{"molecule": "COc1cc(N)c(CN2CCc3ccccc3C2)cc1OC [ISK18]", "result": "0.22 µM"}
{"molecule": "O=[N+]([O-])c1cc(Cl)ccc1CN1CCc2ccccc2C1 [ISK24]", "result": "2.74 µM"}
{"molecule": "COc1ccc2c(c1)CCN(Cc1ccc(Cl)cc1N)C2 [ISK31]", "result": "0.155 µM"}

### Prompt API: value(readout=Ki, system=α2 adrenergic receptors of rat cerebral cortex (Rattus norvegicus, UniProt P22909)) for record COc1ccc2c(c1)CCN(Cc1cc(OC)c(OC)cc1N)C2 [ISK7]
### Response 0.063 µM

====

target: α1 adrenergic receptors of rat cerebral cortex
assay.summary: [3H] prazosine binding, rat cerebral cortex (α1)
Parameters: species or system rat (male Wistar)
protocol.conditions: read-out: Prazosine [^3 H] Ki nM; rat cerebral cortex, 0.2 nM [3H] prazosine, 25° C., 30 minutes; at least three experiments ± standard deviation
Documented Ki across a set of molecules

{"molecule": "COC(=O)[C@@H]1[C@H]2C[C@H]3c4[nH]c5ccccc5c4CCN3C[C@@H]2CC[C@@H]1O [Yohimbine, reference compound]", "Ki": "350 nM"}

### Prompt Which Ki reading was recorded for the molecule `CNc1cc(OC)c(OC)cc1CN1CCc2cc(OC)c(OC)cc2C1` ?
### Response > 10000 nM

### Prompt Which Ki reading was recorded for the molecule `COc1cc(N)c(CN2CCc3cc(OC)c(OC)cc3C2)cc1OC` ?
### Response 2900 nM

### Prompt Which Ki reading was recorded for the molecule `COc1cc2c(cc1OC)CN(Cc1ccccc1N)CC2` ?
### Response 3400 nM

### Prompt Which Ki reading was recorded for the molecule `COc1ccc2c(c1)CCN(Cc1cc(OC)c(OC)cc1N)C2` ?
### Response 990 nM
